// pIC50 lookup, one value per entry
target: E3 ubiquitin-protein ligase Mdm2 (Homo sapiens, UniProt Q00987)
Sequence (Q00987 whole entry): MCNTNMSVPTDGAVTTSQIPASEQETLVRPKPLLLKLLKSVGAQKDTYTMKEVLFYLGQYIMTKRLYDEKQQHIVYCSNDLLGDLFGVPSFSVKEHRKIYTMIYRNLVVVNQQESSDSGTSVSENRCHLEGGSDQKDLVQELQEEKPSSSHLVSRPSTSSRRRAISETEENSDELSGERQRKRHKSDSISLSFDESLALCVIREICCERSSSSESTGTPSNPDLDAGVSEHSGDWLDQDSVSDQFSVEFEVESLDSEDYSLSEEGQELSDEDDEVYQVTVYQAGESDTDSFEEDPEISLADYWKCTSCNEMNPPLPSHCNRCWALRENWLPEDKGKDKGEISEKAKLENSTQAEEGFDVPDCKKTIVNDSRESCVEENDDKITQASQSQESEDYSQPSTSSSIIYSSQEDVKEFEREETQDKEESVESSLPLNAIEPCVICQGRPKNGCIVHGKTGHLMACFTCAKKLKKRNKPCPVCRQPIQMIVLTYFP
pIC50: −log10 of the molar value.
property.label: pIC50

smiles.data: O=c1nc2n(-c3ccc(Cl)cc3)c3ccc([N+](=O)[O-])cc3cc-2c(=O)[nH]1
property.label: pIC50
reading: < 4.12

smiles.data: O=c1nc2n(-c3ccccc3)c3c(Cl)cccc3cc-2c(=O)[nH]1
property.label: pIC50
reading: < 4.00

smiles.data: O=c1nc2n(-c3ccc(Cl)cc3)c3ccc(C(F)(F)F)cc3cc-2c(=O)[nH]1
property.label: pIC50
reading: < 4.00

smiles.data: O=c1nc2n(-c3ccccc3F)c3c([N+](=O)[O-])cccc3cc-2c(=O)[nH]1
property.label: pIC50
reading: < 4.00

smiles.data: O=c1nc2n(-c3ccc(Cl)cc3)c3c([N+](=O)[O-])cccc3cc-2c(=O)[nH]1
property.label: pIC50
reading: < 4.30

smiles.data: O=c1nc2n(-c3ccc(Cl)cc3)c3cc(C(F)(F)F)ccc3cc-2c(=O)[nH]1
property.label: pIC50
reading: < 4.00

smiles.data: O=c1nc2n(-c3ccccc3F)c3ccc(Cl)cc3cc-2c(=O)[nH]1
property.label: pIC50
reading: < 4.00

smiles.data: O=c1nc2n(-c3cccc(F)c3)c3c(Cl)cccc3cc-2c(=O)[nH]1
property.label: pIC50
reading: < 4.00

smiles.data: O=c1nc2n(-c3cccc(Cl)c3)c3c(Cl)cccc3cc-2c(=O)[nH]1
property.label: pIC50
reading: < 4.00

smiles.data: O=c1nc2n(Cc3ccccc3)c3c(C(F)(F)F)cccc3cc-2c(=O)[nH]1
property.label: pIC50
reading: < 4.00

Value source: ChEMBL document CHEMBL2440041
